// data source = patent US20180282719A1

# system.name: T1, recombinant soluble human IL-6 receptor (SR344) (human, UniProt P08887 20-344, biotinylated (sites not given) where immobilized via streptavidin or used in phage ELISA)
# T1 construct: also called soluble IL-6 receptor; membrane-type IL-6 receptor (when biotinylated and immobilized on the chip)
# T1 sequence (looked up): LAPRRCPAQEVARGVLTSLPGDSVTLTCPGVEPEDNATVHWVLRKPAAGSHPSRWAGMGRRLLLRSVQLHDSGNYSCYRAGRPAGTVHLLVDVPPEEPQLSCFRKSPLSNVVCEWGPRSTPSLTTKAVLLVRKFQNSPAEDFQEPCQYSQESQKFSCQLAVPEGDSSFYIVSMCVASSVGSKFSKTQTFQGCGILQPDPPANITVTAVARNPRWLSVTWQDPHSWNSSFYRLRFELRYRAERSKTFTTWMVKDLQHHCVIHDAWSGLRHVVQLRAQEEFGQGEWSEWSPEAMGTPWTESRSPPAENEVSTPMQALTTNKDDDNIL
# protocol: SPR Biacore T100, biotinylated SR344 on streptavidin chip (model of membrane IL-6 receptor), antibody 0.5 ug/mL as analyte, bound at pH 7.4, dissociation at pH 5.8, 37 C
This section presents binders with their documented koff values.
The figure you give is taken to be in s⁻¹; do not add the unit.

Below, each entry is followed by its recorded koff result.
>  <binder>
H170/L82 (antibody, IgG1, V domains shown, expressed and purified as IgG (IgG1); also called H170/L82-IgG1) VH: QVQLQESGPGLVKPSETLSLTCAVSGHSISHHHAHSWVRQPPGEGLEWIGYISYSGITHYNPHLKGRVTISRDTSKNQFSLKLSSVTAADTAAYYCARVLARITAMDHWGEGTLVTVSS VL: DIQMTQSPSSLSASVGDSVTITCQASQDISSHLNWYQQKPGKAPELLIYYGSHLHSGVPSRFSGSGSGTDFTFTISSLEAEDAATYYCGQGNRLPYTFGQGTKVEIE

>  <koff / s⁻¹>
0.00144

$$$$
>  <binder>
CLH5/L73 (antibody, IgG1, V domains shown, expressed and purified as IgG) VH: QVQLQESGPGLVKPSETLSLTCAVSGYSISHDHAWSWVRQPPGEGLEWIGHISYSGITNYNPHLKGRVTISRDTSKNQFSLKLSSVTAADTAAYYCARFLARITAHDHWGEGTLVTVSS VL: DIQMTQSPSSLSASVGDSVTITCQASQHISSHLNWYQQKPGKAPELLIYYGSHLHSGVPSRFSGSGSGTDFTFTISSLEAEDAATYYCGQGNRLPYTFGQGTKVEIE

>  <koff / s⁻¹>
0.00567

$$$$
>  <binder>
humanized PM1 antibody (wild type, WT) (antibody, human IgG1, kappa, V domains shown, IgG1; also called WT-IgG1; wild type humanized anti-IL-6 receptor antibody) VH: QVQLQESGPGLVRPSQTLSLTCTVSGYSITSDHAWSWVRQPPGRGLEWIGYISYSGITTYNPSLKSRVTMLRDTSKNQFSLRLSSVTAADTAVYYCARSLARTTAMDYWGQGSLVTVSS VL: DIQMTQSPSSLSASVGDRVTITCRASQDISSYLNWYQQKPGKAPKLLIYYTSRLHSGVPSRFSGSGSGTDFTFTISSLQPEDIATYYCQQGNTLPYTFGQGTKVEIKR

>  <koff / s⁻¹>
0.000715

$$$$

API: the following record is the query input.
Ask | Read the entry H3pI/L73 (antibody, IgG1, V domains shown, tested as IgG1; also called H3pI/L73-IgG1; H3pl/L73) VH: QVQLQESGPGLVKPSETLSLTCAVSGHSISHDHAHSWVRQPPGEGLEWIGYISYSGITNYNPSLKGRVTISRDTSKNQFSLKLSSVTAADTAAYYCARSLARTTAMDYWGEGTLVTVSS VL: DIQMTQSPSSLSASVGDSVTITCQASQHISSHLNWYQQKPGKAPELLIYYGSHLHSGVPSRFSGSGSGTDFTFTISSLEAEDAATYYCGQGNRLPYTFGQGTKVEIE and write its reported koff.
Reply | 0.00378
